- SYSTEM_NAME: T1, mouse gonadotropin-releasing hormone receptor (GnRH-R), clone WZ25 (mouse)
- T1 chain: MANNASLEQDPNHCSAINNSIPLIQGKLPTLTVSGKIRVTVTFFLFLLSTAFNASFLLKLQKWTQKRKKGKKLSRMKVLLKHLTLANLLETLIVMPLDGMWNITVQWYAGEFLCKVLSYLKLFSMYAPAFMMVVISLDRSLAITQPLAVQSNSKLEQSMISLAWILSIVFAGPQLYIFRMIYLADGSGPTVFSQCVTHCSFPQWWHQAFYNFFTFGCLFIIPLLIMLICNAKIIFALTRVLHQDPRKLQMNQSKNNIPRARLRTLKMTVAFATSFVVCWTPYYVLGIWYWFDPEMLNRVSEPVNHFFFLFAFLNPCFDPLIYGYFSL
- TEST_DETAILS: displacement of 125I-GnRH-A by GnRH-A, αT3-1 cell membranes (endogenous mouse receptor)
Non-standard residues stand in square brackets, D forms with d. No end group written: not given here. NMeL = CN[C@@H](CC(C)C)C(=O)O
MEASURED_PARAMETER: pKd
// pKd here means minus log10 of the molar concentration (mol/L)

Requested read-out: pKd. Entry: QHWSY[dA][NMeL]RP-NHEt (ends and bridges not checked; also: 125I label on the tracer form) [[D-Ala6, NαMe-Leu7, Pro9-NHEt]GnRH (GnRH-A)]
8.54
